# reported melting point; entries follow

[
  {
    "STRUCTURE_SMILES_STRING": "CC(=O)Oc1ccccc1/C=N/n1c(-c2ccc(Cl)cc2)cn(C(C)=O)c1=S",
    "melting point": "115 to 117 °C"
  },
  {
    "STRUCTURE_SMILES_STRING": "S=c1[nH]cc(-c2ccc(Cl)cc2)n1/N=C/C=C/c1ccccc1",
    "melting point": "139 to 141 °C"
  },
  {
    "STRUCTURE_SMILES_STRING": "Oc1ccc(Br)cc1/C=N/n1c(-c2ccc(Cl)cc2)c[nH]c1=S",
    "melting point": "191 to 193 °C"
  },
  {
    "STRUCTURE_SMILES_STRING": "S=c1[nH]cc(-c2ccc(Cl)cc2)n1/N=C/c1ccccc1",
    "melting point": "121 to 123 °C"
  },
  {
    "STRUCTURE_SMILES_STRING": "Oc1ccccc1/C=N/n1c(-c2ccc(Cl)cc2)c[nH]c1=S",
    "melting point": "128 to 130 °C"
  }
]
